Measured values drawn from paper PMC9001717 for this set.

- targetDesc: hSR Y121G (Homo sapiens, UniProt Q9GZT4, C2D/C6D/Y121G)
- Construct: (His)6 (C); made in house; host or cells: E. coli BL21-CodonPlus (DE3)-RIL
- Sequence (Q9GZT4 whole entry C2D/C6D/Y121G): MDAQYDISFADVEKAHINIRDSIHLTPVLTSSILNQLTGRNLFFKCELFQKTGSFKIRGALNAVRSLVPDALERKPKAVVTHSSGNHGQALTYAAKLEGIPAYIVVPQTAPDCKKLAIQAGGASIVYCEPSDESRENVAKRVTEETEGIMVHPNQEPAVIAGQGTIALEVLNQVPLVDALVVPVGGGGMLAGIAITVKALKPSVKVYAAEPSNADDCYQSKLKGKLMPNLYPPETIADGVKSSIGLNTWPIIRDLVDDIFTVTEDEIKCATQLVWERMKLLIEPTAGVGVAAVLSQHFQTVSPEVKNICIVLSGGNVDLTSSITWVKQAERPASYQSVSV
- measurementDescription: L- to D-Ser racemisation coupled luminescence assay, Y121G mutant
- Assay type: biochemical
- measurementSetup: 1 mM ATP, 2 mM L-serine, 16.7% DMSO, ~ = extrapolated
metricName: IC50 (mM)

[P] CC(=O)NC1CNc2ccccc2C1 (centres unmarked)
[Q] Nc1ccccc1N1CCOCC1
Qu. // compare measured IC50 between P and Q ; output the lower one Choose, then provide that item's label.
Ans. P

* * *

- targetDesc: hSR Y121G (Homo sapiens, UniProt Q9GZT4, C2D/C6D/Y121G)
- Construct: (His)6 (C); made in house; host or cells: E. coli BL21-CodonPlus (DE3)-RIL
- measurementDescription: L- to D-Ser racemisation coupled luminescence assay, Y121G mutant
- Format: biochemical
- measurementSetup: 1 mM ATP, 2 mM L-serine, 16.7% DMSO, ~ = extrapolated
Entries and their measured IC50 follow.

Here is how some molecules turned out for IC50.
O=C(CCCc1ccccc1)N1CCOCC1 :: ~26 mM
NCc1cc(-c2ccccc2)no1 :: ~26.3 mM

Let us examine a further case.
Qu. Suppose we examine the molecule O=C(NCc1nc2ccccc2[nH]1)c1ccco1 ; what IC50 value has been reported?
Ans. ~7.4 mM
